Test system: Epidermal growth factor receptor (Homo sapiens), P00533 [L858R,T790M]
Sequence (P00533 whole entry T790M/L858R, looked up, the tested form may be a part): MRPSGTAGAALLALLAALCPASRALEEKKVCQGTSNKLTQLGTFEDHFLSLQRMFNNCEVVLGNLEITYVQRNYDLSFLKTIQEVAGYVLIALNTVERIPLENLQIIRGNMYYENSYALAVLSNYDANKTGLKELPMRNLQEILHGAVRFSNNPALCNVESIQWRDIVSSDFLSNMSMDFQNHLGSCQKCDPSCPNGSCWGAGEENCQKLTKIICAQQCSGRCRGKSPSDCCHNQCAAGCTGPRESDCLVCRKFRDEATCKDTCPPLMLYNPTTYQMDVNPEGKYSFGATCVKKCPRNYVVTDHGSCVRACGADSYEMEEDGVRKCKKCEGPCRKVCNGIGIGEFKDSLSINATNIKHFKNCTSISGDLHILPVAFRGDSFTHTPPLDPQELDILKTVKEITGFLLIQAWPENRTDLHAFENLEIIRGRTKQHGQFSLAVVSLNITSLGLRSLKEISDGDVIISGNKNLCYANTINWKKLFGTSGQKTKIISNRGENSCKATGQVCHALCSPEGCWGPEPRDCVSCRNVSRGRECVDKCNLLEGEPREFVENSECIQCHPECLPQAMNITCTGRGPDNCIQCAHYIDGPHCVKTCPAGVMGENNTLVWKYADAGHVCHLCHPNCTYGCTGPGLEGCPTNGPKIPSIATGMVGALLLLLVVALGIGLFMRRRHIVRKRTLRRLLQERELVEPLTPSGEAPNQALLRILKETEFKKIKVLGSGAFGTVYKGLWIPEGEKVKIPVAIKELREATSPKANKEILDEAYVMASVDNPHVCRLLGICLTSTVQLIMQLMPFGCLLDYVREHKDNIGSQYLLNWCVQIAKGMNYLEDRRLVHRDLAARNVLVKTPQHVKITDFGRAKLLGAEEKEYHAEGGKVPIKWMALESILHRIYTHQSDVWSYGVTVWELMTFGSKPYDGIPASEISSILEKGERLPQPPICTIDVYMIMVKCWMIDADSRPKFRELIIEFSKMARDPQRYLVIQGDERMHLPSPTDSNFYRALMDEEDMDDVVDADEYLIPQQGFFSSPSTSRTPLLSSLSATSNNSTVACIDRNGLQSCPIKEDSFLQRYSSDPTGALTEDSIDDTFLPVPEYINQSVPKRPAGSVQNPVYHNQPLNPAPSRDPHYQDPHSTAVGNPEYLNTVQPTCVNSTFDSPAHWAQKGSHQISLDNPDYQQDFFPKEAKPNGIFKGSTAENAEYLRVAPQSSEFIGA
Experiment: Inhibition of N-terminal GST-fused human EGFR L858R/T790M double mutant cytoplasmic domain (669 to 1210 residues) expressed in baculovirus expression system using 5-FAM-EEPLYWSFPAKKK-CONH2 as substrate at 1 uM incubated for 20 mins by Mobility shift assay
Active and inactive are the calls of the source. The rule behind the calls is not given here.
reportedProperty: inhibition

CCN1CCN(c2nc(Oc3ccc4ccc(=O)[nH]c4c3)c3sccc3n2)CC1	inactive
O=c1ccc2ccc(Oc3nc(Nc4ccc(N5CCC(N6CCCCC6)CC5)cc4)nc4ccsc34)cc2[nH]1	83%
O=c1ccc2ccc(Oc3nc(Nc4ccc(CN5CCOCC5)cc4)nc4ccsc34)cc2[nH]1	60%
CCN1CCN(c2ccc(Nc3nc(Oc4ccc5ccc(=O)[nH]c5c4)c4sccc4n3)c(OC)c2)CC1	75%

Prompt: Return inhibition for the following compound: CN1CCN(c2nc(Oc3ccc4ccc(=O)[nH]c4c3)c3sccc3n2)CC1
Response: inactive
